Tested on: P388
Assay: Inhibition of proliferation of […] at concentration of 0.1 uM was determined
Assay type: functional
Conditions: Mus musculus
Parameter: inhibition at 0.1 µM. Scope: all listed entries.

| CHEMICAL STRUCTURE | inhibition at 0.1 µM |
| --- | --- |
| Cc1ccc(S(=O)(=O)n2cc(-c3cc(C(F)(F)F)ccn3)c3cc(Br)ccc32)cc1 | 9.7% |
| Cc1ccc(S(=O)(=O)n2cc(-c3cc(C(F)(F)F)cc(-c4cn(S(=O)(=O)c5ccc(C)cc5)c5cc(Br)ccc45)n3)c3ccc(Br)cc32)cc1 | 8.1% |
| Cc1ccc(S(=O)(=O)n2cc(-c3cc(C(F)(F)F)cc(-c4cn(S(=O)(=O)c5ccc(C)cc5)c5ccccc45)n3)c3ccccc32)cc1 | 15.7% |
| COc1ccc2c(-c3cc(C(F)(F)F)c(C#N)c(-c4cn(S(=O)(=O)c5ccc(C)cc5)c5cc(OC)ccc45)n3)cn(S(=O)(=O)c3ccc(C)cc3)c2c1 | 5.1% |

----------
System: A549
Experiment: Concentration for in vitro cytotoxicity against A-549 human lung tumor cells
Assay type: functional, cell-based
pIC50: −log10 of the molar value.
// reported pIC50 per item

| CHEMICAL STRUCTURE | RESULT MODIFIER | pIC50 |
| --- | --- | --- |
| COc1ccc2c(c1)c(-c1cc(C(F)(F)F)cc(-c3cn(S(=O)(=O)c4ccc(C)cc4)c4ccc(OC)cc34)n1)cn2S(=O)(=O)c1ccc(C)cc1 | < | 4.00 |
| Cc1ccc(S(=O)(=O)n2cc(-c3cc(C(F)(F)F)cc(-c4cn(S(=O)(=O)c5ccc(C)cc5)c5ccccc45)n3)c3ccccc32)cc1 | = | 4.64 |
| Cc1ccc(S(=O)(=O)n2cc(-c3cc(C(F)(F)F)ccn3)c3cc(OCc4ccccc4)ccc32)cc1 | < | 4.00 |
| COc1ccc2c(c1)c(-c1cc(C(F)(F)F)ccn1)cn2S(=O)(=O)c1ccc(C)cc1 | < | 4.00 |
| COc1ccc2c(-c3cc(C(F)(F)F)cc(-c4cn(S(=O)(=O)c5ccc(C)cc5)c5cc(OC)ccc45)n3)cn(S(=O)(=O)c3ccc(C)cc3)c2c1 | = | 5.77 |
| Cc1ccc(S(=O)(=O)n2cc(-c3cc(C(F)(F)F)c(C#N)c(-c4cn(S(=O)(=O)c5ccc(C)cc5)c5cc(Br)ccc45)n3)c3ccc(Br)cc32)cc1 | < | 4.00 |
| Cc1ccc(S(=O)(=O)n2cc(-c3cc(C(F)(F)F)ccn3)c3cc(Br)ccc32)cc1 | = | 5.39 |

----------
Tested on: P388
Assay: Inhibition of proliferation of […] at concentration of 0.1 uM was determined
Type: functional
Conditions: Mus musculus

| CHEMICAL STRUCTURE | inhibition at 0.1 µM / % |
| --- | --- |
| COc1ccc2c(c1)c(-c1cc(C(F)(F)F)c(C#N)c(-c3cn(S(=O)(=O)c4ccc(C)cc4)c4ccc(OC)cc34)n1)cn2S(=O)(=O)c1ccc(C)cc1 | 1.7 |
| COc1ccc2c(c1)c(-c1cc(C(F)(F)F)cc(-c3cn(S(=O)(=O)c4ccc(C)cc4)c4ccc(OC)cc34)n1)cn2S(=O)(=O)c1ccc(C)cc1 | 9.3 |
| Cc1ccc(S(=O)(=O)n2cc(-c3cc(C(F)(F)F)c(C#N)c(-c4cn(S(=O)(=O)c5ccc(C)cc5)c5cc(Br)ccc45)n3)c3ccc(Br)cc32)cc1 | 3.1 |

----------
Below is a list of entries, each paired with its recorded inhibition at 10 µM value.
Tested on: P388
Experiment: Inhibition of proliferation of […] at concentration of 10 uM was determined
Type: functional
Conditions: Mus musculus
MEASURED QUANTITY: inhibition at 10 µM (%)

| CHEMICAL STRUCTURE | MEASURED QUANTITY | UNITS TEXT | NUMERIC VALUE |
| --- | --- | --- | --- |
| COc1ccc2c(-c3cc(C(F)(F)F)c(C#N)c(-c4cn(S(=O)(=O)c5ccc(C)cc5)c5cc(OC)ccc45)n3)cn(S(=O)(=O)c3ccc(C)cc3)c2c1 | inhibition at 10 µM | % | 10.1 |
| COc1ccc2c(c1)c(-c1cc(C(F)(F)F)c(C#N)c(-c3cn(S(=O)(=O)c4ccc(C)cc4)c4ccc(OC)cc34)n1)cn2S(=O)(=O)c1ccc(C)cc1 | inhibition at 10 µM | % | 3.5 |
| Cc1ccc(S(=O)(=O)n2cc(-c3cc(C(F)(F)F)cc(-c4cn(S(=O)(=O)c5ccc(C)cc5)c5cc(Br)ccc45)n3)c3ccc(Br)cc32)cc1 | inhibition at 10 µM | % | 15.1 |
| COc1ccc2c(c1)c(-c1cc(C(F)(F)F)cc(-c3cn(S(=O)(=O)c4ccc(C)cc4)c4ccc(OC)cc34)n1)cn2S(=O)(=O)c1ccc(C)cc1 | inhibition at 10 µM | % | 5 |
| Cc1ccc(S(=O)(=O)n2cc(-c3cc(C(F)(F)F)cc(-c4cn(S(=O)(=O)c5ccc(C)cc5)c5ccccc45)n3)c3ccccc32)cc1 | inhibition at 10 µM | % | 23.5 |
| COc1ccc2c(-c3cc(C(F)(F)F)cc(-c4cn(S(=O)(=O)c5ccc(C)cc5)c5cc(OC)ccc45)n3)cn(S(=O)(=O)c3ccc(C)cc3)c2c1 | inhibition at 10 µM | % | 92.8 |
| Cc1ccc(S(=O)(=O)n2cc(-c3cc(C(F)(F)F)ccn3)c3cc(Br)ccc32)cc1 | inhibition at 10 µM | % | 21.9 |
| Cc1ccc(S(=O)(=O)n2cc(-c3cc(C(F)(F)F)c(C#N)c(-c4cn(S(=O)(=O)c5ccc(C)cc5)c5cc(Br)ccc45)n3)c3ccc(Br)cc32)cc1 | inhibition at 10 µM | % | 5.7 |

----------
Catalogue of pIC50 values
System: A549
Experiment: Concentration for in vitro cytotoxicity against A-549 human lung tumor cells
Type: functional, cell-based
pIC50: −log10 of the molar value.
MEASURED QUANTITY: pIC50

| CHEMICAL STRUCTURE | RESULT MODIFIER | NUMERIC VALUE |
| --- | --- | --- |
| Cc1ccc(S(=O)(=O)n2cc(-c3cc(C(F)(F)F)ccn3)c3ccccc32)cc1 | = | 4.60 |
| Cc1ccc(S(=O)(=O)n2cc(-c3cc(C(F)(F)F)cc(-c4cn(S(=O)(=O)c5ccc(C)cc5)c5cc(Br)ccc45)n3)c3ccc(Br)cc32)cc1 | < | 4.00 |
| COc1ccc2c(-c3cc(C(F)(F)F)c(C#N)c(-c4cn(S(=O)(=O)c5ccc(C)cc5)c5cc(OC)ccc45)n3)cn(S(=O)(=O)c3ccc(C)cc3)c2c1 | < | 4.00 |
| Cc1ccc(S(=O)(=O)n2cc(-c3cc(C(F)(F)F)c(C#N)c(-c4cn(S(=O)(=O)c5ccc(C)cc5)c5ccc(Br)cc45)n3)c3cc(Br)ccc32)cc1 | = | 4.11 |
| COc1ccc2c(c1)c(-c1cc(C(F)(F)F)c(C#N)c(-c3cn(S(=O)(=O)c4ccc(C)cc4)c4ccc(OC)cc34)n1)cn2S(=O)(=O)c1ccc(C)cc1 | < | 4.00 |

Reference source for all entries: ChEMBL document CHEMBL1134187
